Measured IC50 (Histone-lysine N-methyltransferase EZH2 (Homo sapiens))
Please reply with the bare figure in µM and do not write the unit itself.

// worked examples, IC50 included
[[record]]
item_smiles = "CCN(c1ccc(Cl)c(C(=O)N(C)Cc2c(C)cc(C)[nH]c2=O)c1C)C1CCOCC1"
attribute_measured = "IC50"
scale_unit = "µM"
recorded_measurement = 0.2

[[record]]
item_smiles = "Cc1cc(C)c(CNC(=O)c2cccc3c2cnn3C(C)C)c(=O)[nH]1"
attribute_measured = "IC50"
scale_unit = "µM"
recorded_measurement = 1.1

[[record]]
item_smiles = "Cc1cc(C)c(CNC(=O)c2cc(Br)nc3c2cnn3C2CCN(C(=O)C(C)(C)C)CC2)c(=O)[nH]1"
attribute_measured = "IC50"
scale_unit = "µM"
recorded_measurement = 0.05

[[record]]
item_smiles = "Cc1cc(C)c(CNC(=O)c2cc(Br)nc3c2cnn3C2CCNCC2)c(=O)[nH]1"
attribute_measured = "IC50"
scale_unit = "µM"
recorded_measurement = 2.2

[[record]]
item_smiles = "Cc1cc(C)c(CNC(=O)c2cc(Br)nc3c2cnn3C(C)C)c(=O)[nH]1"
attribute_measured = "IC50"
scale_unit = "µM"
recorded_measurement = 0.9

[[record]]
item_smiles = "Cc1cc(C)c(CNC(=O)c2ccc3c(cnn3C(C)C)c2)c(=O)[nH]1"
attribute_measured = "IC50"
scale_unit = "µM"
recorded_measurement = 22


Please find the next compound below.
Input line: Return IC50 measured with Histone-lysine N-methyltransferase EZH2 (Homo sapiens) given this compound: Cc1cc(C)c(CNC(=O)c2cc(C(C)C)nc3c2cnn3C(C)C)c(=O)[nH]1
Sequence (Q15910 whole entry): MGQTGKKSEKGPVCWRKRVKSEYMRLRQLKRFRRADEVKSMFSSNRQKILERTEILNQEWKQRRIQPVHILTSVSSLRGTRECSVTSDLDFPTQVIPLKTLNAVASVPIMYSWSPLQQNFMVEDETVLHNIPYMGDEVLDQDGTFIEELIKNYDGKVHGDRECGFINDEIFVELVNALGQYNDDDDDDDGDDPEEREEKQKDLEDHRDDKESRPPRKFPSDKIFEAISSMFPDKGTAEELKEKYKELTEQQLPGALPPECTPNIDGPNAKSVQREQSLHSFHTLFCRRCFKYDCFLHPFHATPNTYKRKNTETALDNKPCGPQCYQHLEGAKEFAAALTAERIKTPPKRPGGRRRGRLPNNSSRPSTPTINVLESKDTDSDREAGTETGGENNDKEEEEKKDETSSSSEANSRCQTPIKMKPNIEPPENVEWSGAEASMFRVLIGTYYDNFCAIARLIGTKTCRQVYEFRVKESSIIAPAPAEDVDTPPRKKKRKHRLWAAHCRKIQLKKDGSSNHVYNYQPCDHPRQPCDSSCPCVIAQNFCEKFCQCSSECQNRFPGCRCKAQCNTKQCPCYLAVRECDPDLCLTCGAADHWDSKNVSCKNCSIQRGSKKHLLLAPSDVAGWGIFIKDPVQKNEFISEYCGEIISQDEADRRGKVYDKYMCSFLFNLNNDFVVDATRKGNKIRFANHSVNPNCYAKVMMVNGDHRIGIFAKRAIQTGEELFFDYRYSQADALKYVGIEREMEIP
Output line: 2.3
